// data source = the supplement of paper PMC9233669

system: biotinyl-Val-oxazolone; test: self-aminoacylation, catalytic enhancement (BVO) (fold over background); higher = more active; k-Seq, kA / k0A0; sequences stand for … in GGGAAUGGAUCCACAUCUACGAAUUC…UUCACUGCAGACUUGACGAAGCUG
Variants at the floor of the assay were thinned out.
Response key: Satisfied means self-aminoacylation >= 2; Not satisfied means self-aminoacylation < 2.

Solved entries (count: 5):
1) CUACUUCAAACACUCCGUCUG [Fam1A.1 aminoacylation ribozyme variant] :: Not satisfied
2) AUUCACCUAGGUCAUCCGGUA [Fam2.2 aminoacylation ribozyme variant] :: Satisfied
3) AAGUUUGCUAAUACCCGCAAG [Fam3.1 aminoacylation ribozyme variant] :: Not satisfied
4) CUACUUCAAACAAGUGGUCUG [Fam1A.1 aminoacylation ribozyme variant] :: Not satisfied
5) AUUUACCUAGGUCAUUGGGUG [Fam2.2 aminoacylation ribozyme variant] :: Satisfied

Identify whether the reported self-aminoacylation of the following sequence is 2 or greater: CCACACCUGAAGCAAUCGGUC [Fam1B.1 aminoacylation ribozyme variant]
Not satisfied

Identify whether the reported self-aminoacylation of the following sequence is 2 or greater: AUUCACCUGGGCCAUCGGGUG [Fam2.2 aminoacylation ribozyme variant]
Satisfied

Identify whether the reported self-aminoacylation of the following sequence is 2 or greater: CUACUUCAAUCGAUCGGUCUG [Fam1A.1 aminoacylation ribozyme variant]
Not satisfied

---

Please respond with reported self-aminoacylation for every item in the list.
system: biotinyl-Val-oxazolone; assay: self-aminoacylation, catalytic enhancement (BVO) (fold over background); higher = more active; k-Seq, kA / k0A0; sequences stand for … in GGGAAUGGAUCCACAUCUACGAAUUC…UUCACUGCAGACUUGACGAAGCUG
Fewer inactive variants are shown than the library holds.
Answers are plain numbers.

A selection of reference data follows.
1. AUUCCCCUGGUCUUCGAGUGA [Fam2.1 aminoacylation ribozyme variant] :: 5.87
2. AUUGCCCUGGUCAUCGACUGA [Fam2.1 aminoacylation ribozyme variant] :: 0.951
3. CGACAUCAAACAAUCGGUCUG [Fam1A.1 aminoacylation ribozyme variant] :: 1.19
4. AGUACCUUGGUCAUCGAGUGA [Fam2.1 aminoacylation ribozyme variant] :: 4.07

// moving on: another record for self-aminoacylation
For AUUACCCUGGUCAUCGAGGUA [Fam2.1 aminoacylation ribozyme variant] , what is its reported self-aminoacylation?
3.16

---

tested on: biotinyl-Leu-oxazolone; assay: self-aminoacylation, catalytic enhancement (BLO) (fold over background); higher = more active; k-Seq, kA / k0A0; sequences stand for … in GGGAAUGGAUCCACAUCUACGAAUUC…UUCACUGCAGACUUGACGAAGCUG
This sample holds only a part of the variants without activity.
Measurement kind: self-aminoacylation
Give bare numbers.

1) CCACACUUAAAGCAAUCCGUC [Fam1B.1 aminoacylation ribozyme variant] :: 0.838
2) AUUCCCCUAGGUCGUCGGGUG [Fam2.2 aminoacylation ribozyme variant] :: 9.19
3) AUUCAUCUAUGUCAUCGGGUG [Fam2.2 aminoacylation ribozyme variant] :: 8.74

I'm hoping you can list self-aminoacylation for every sequence here, please.
1. UUGCACCUAGGUCAUCGGGUG [Fam2.2 aminoacylation ribozyme variant]
2. AUUCACCUAGGGCAUCGCGUG [Fam2.2 aminoacylation ribozyme variant]
3. AAAUUUCCUAAUAGUCGCAAG [Fam3.1 aminoacylation ribozyme variant]
4. AUUAUCCUGGUCAUUGAGUGA [Fam2.1 aminoacylation ribozyme variant]
5. AUUCGCCUAGGCCAUCGGGUG [Fam2.2 aminoacylation ribozyme variant]
6. CCACACUUGAAGCAAUAGGUC [Fam1B.1 aminoacylation ribozyme variant]

4.63
2.92
1.18
11.7
5.27
0.471

---

system: biotinyl-Leu-oxazolone; assay: self-aminoacylation, catalytic enhancement (BLO) (fold over background); higher = more active; k-Seq, kA / k0A0; sequences stand for … in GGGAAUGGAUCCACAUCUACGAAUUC…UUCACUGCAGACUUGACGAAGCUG
Variants at the floor of the assay were thinned out.
Measurement kind: self-aminoacylation
Numbers only.

1) CCACACUUCCAGCAAUCGAUC [Fam1B.1 aminoacylation ribozyme variant] :: 0.579
2) AUUCACCUAUGUCAUCGGGGG [Fam2.2 aminoacylation ribozyme variant] :: 1.93
3) CCACACUUAAAGAAAUCGGUC [Fam1B.1 aminoacylation ribozyme variant] :: 0.749
4) AUUCACCUAGGUAAUCGGGUC [Fam2.2 aminoacylation ribozyme variant] :: 0.754
5) CUACUUCAAUCAAUCGGUCUU [Fam1A.1 aminoacylation ribozyme variant] :: 1.35

I'm hoping you can list self-aminoacylation for every sequence here, please.
1. AAUACCCUGGGCAUCGAGUGA [Fam2.1 aminoacylation ribozyme variant]
2. CUACUCCAAACAAUCGAUCUG [Fam1A.1 aminoacylation ribozyme variant]

[3.79, 0.533]

For CUACCUCAAACAAUCGGUUUG [Fam1A.1 aminoacylation ribozyme variant] , what is its reported self-aminoacylation?
0.715

---

test system: biotinyl-Leu-oxazolone; experiment: self-aminoacylation, catalytic enhancement (BLO) (fold over background); higher = more active; k-Seq, kA / k0A0; sequences stand for … in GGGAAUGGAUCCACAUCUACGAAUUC…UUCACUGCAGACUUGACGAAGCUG
This sample holds only a part of the variants without activity.
Measurement kind: self-aminoacylation
One number for each entry.

A selection of reference data follows.
1) GUACUUCAAUCAAUCGGUCUG [Fam1A.1 aminoacylation ribozyme variant] :: 2.06
2) AAGUUGGCUAAUAGUUGCAAG [Fam3.1 aminoacylation ribozyme variant] :: 1.09
3) AUUACCCUGCGCAUCGAGUGA [Fam2.1 aminoacylation ribozyme variant] :: 5.76
4) CCACACUUCAACCAAUCGGUA [Fam1B.1 aminoacylation ribozyme variant] :: 0.859
5) AUUCACCUCGGUCAUCGGGCG [Fam2.2 aminoacylation ribozyme variant] :: 3.62
6) AAGUUUACUAAUAUUCGCAAG [Fam3.1 aminoacylation ribozyme variant] :: 1.44

I'm hoping you can list self-aminoacylation for every sequence here, please.
1. CUACUUCAAUCAAUCGGUGUG [Fam1A.1 aminoacylation ribozyme variant]
2. AUUACCCUGGUCAUUGAGUGG [Fam2.1 aminoacylation ribozyme variant]
3. AUCCACCAAGGUCAUCGGGUG [Fam2.2 aminoacylation ribozyme variant]

1: 1.83; 2: 2.66; 3: 10.1

---

system: biotinyl-Phe-oxazolone; assay: self-aminoacylation, catalytic enhancement (BFO) (fold over background); higher = more active; k-Seq, kA / k0A0; sequences stand for … in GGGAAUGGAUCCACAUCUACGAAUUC…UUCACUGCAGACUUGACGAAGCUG
Fewer inactive variants are shown than the library holds.
Measurement kind: self-aminoacylation

1. CCACACUCCAAUCAAUCGGUC [Fam1B.1 aminoacylation ribozyme variant] :: 5.95
2. AUUAACCUAGGUCAUCGGGAG [Fam2.2 aminoacylation ribozyme variant] :: 1.18
3. CAUCACCUAGGUCAUCGGGUG [Fam2.2 aminoacylation ribozyme variant] :: 21
4. AAGCUUGCUAAUAGUCGCAUG [Fam3.1 aminoacylation ribozyme variant] :: 3.98
5. AAGUUUGCUAAUAGUCGCAUG [Fam3.1 aminoacylation ribozyme variant] :: 1.47

I'm hoping you can list self-aminoacylation for every sequence here, please.
1. AUUAGGCUGGUCAUCGAGUGA [Fam2.1 aminoacylation ribozyme variant]
2. AAGUUGGCUAAUAGUCGCAAC [Fam3.1 aminoacylation ribozyme variant]
3. GUACUUCAAAGAAUCGGUCUG [Fam1A.1 aminoacylation ribozyme variant]

1. 8.97
2. 2.17
3. 3.28

---

test system: biotinyl-Phe-oxazolone; experiment: self-aminoacylation, catalytic enhancement (BFO) (fold over background); higher = more active; k-Seq, kA / k0A0; sequences stand for … in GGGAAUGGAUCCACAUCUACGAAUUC…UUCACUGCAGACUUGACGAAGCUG
This sample holds only a part of the variants without activity.
Grouping key: self-aminoacylation. Bins: lower segment (below 2), middle segment (2 to below 10), upper segment (10 or more)

Solved entries (count: 6):
1. ACUACUCUGGUCAUCGAGUGA [Fam2.1 aminoacylation ribozyme variant] :: upper segment
2. CUACUUCAAACAUUCAGUCUG [Fam1A.1 aminoacylation ribozyme variant] :: lower segment
3. CCACAAUUCAAUCAAUCGGUC [Fam1B.1 aminoacylation ribozyme variant] :: upper segment
4. AAGUUCGCUAAUAGUCGCAUG [Fam3.1 aminoacylation ribozyme variant] :: middle segment
5. AUUCCCCUGGUCGUCGAGUGA [Fam2.1 aminoacylation ribozyme variant] :: middle segment
6. AUUCACUUGGGUCAUCGGGUG [Fam2.2 aminoacylation ribozyme variant] :: upper segment

Which bin should I file CUACUUCAAACAAACGGACUG [Fam1A.1 aminoacylation ribozyme variant] under?
lower segment

Which bin should I file CUGCUUCAAUCAAUCGGUCUG [Fam1A.1 aminoacylation ribozyme variant] under?
upper segment

Which bin should I file AUUCCCCUGGUCAUCGAGUGC [Fam2.1 aminoacylation ribozyme variant] under?
lower segment

Which bin should I file CCACACCUCAAACAAUCGGUC [Fam1B.1 aminoacylation ribozyme variant] under?
middle segment

Which bin should I file AGGUUUGCUAAUAGUCCCAAG [Fam3.1 aminoacylation ribozyme variant] under?
middle segment
